test system: HS 578T breast; assay: NCI tumour cell line growth inhibition, 48 h
METRIC: log10 of TGI (log10 of the value in µM)

- COMPOUND: "CN(/N=C/c1cccc2cccnc12)c1ccc([N+](=O)[O-])cc1[N+](=O)[O-]"
  ASSAYED TARGET: "HS 578T breast"
  log10 of TGI: 1.54
- COMPOUND: "C=C(C)[C@@H]1CC[C@]2(C)CC[C@]3(C)[C@H](CC[C@@H]4[C@@]5(C)CC[C@H](O)C(C)(C)[C@@H]5CC[C@]43C)[C@@H]12"
  ASSAYED TARGET: "HS 578T breast"
  log10 of TGI: 1.79
- COMPOUND: "C[C@H](NC(=O)[C@@H](C)N)[C@H](Oc1ccc2c(cnn2-c2ccc(F)cc2)c1)c1ccc2c(c1)OCCO2"
  ASSAYED TARGET: "HS 578T breast"
  log10 of TGI: 1.12
- COMPOUND: "CCOC(=O)Nc1ccc2c(c1)/C(=N\\NC(N)=S)c1ccccc1-2"
  ASSAYED TARGET: "HS 578T breast"
  log10 of TGI: 1.56
- COMPOUND: "Fc1ccc(C2CC(c3cccc(Nc4ccncc4)c3)=NN2c2ccc(Cl)cc2)cc1 (stereo not given)"
  ASSAYED TARGET: "HS 578T breast"
  log10 of TGI: 0.56
- COMPOUND: "NS(=O)(=O)c1ccc(-n2nc(-c3ccc(Cl)cc3)cc2-c2cc(O)ccc2O)cc1"
  ASSAYED TARGET: "HS 578T breast"
  log10 of TGI: 1.90

* * *

TGI values by entry
system: UACC-257 melanoma; experiment: NCI tumour cell line growth inhibition, 48 h

- MOLECULE: "O=C(O)CCCSC(=O)Nc1ccc(N=Nc2ccccc2)cc1"
  TGI: "> 100 µM"
- MOLECULE: "CC1(C)C2CCC13C(=O)C1OC3(C2)C2C(=O)c3cc4ccccc4cc3C(=O)C12 (centres undefined)"
  TGI: "64.8 µM"
- MOLECULE: "CC1=C(C(=O)Nc2cc(=O)n(C)c(=O)n2C)C(c2ccco2)C(C(=O)Nc2cc(=O)n(C)c(=O)n2C)=C(C)N1"
  TGI: "> 100 µM"
- MOLECULE: "COc1ccc(/C=C2\\NC(=S)N(/C=C3\\C(=O)Oc4ccccc4C3=O)C2=O)cc1OC"
  TGI: "> 100 µM"
- MOLECULE: "COC(=O)C(Cc1ccccc1)NP(=O)(O)OCC1OC(n2cc(Br)c(=O)[nH]c2=O)CC1O (centres undefined)"
  TGI: "> 100 µM"
- MOLECULE: "CCOC(=O)c1nnsc1NC(=O)Nc1ccc(Cc2ccc(NC(=O)Nc3snnc3C(=O)OCC)cc2)cc1"
  TGI: "> 100 µM"
- MOLECULE: "CCCCON(OC(=O)c1ccc2ccccc2c1)C(=O)c1ccccc1"
  TGI: "> 100 µM"
- MOLECULE: "CC12O[C@]3([C@H](C(=O)N4CCOC43C)[C@H]1Cl)[C@H]1O[C@H]12 (some centres undefined)"
  TGI: "> 100 µM"
- MOLECULE: "COc1ncnc2c(-c3ccccc3)cn(COCc3ccccc3)c12"
  TGI: "9.31 µM"
- MOLECULE: "Cc1ccc2nc(Cl)c(/C=N/N3C(=O)/C(=C/c4cccc([N+](=O)[O-])c4)N=C3c3ccccc3)cc2c1"
  TGI: "> 100 µM"
- MOLECULE: "O=C(O)CN(CC(=O)O)Cc1cc(C#Cc2ccc(C#Cc3ccccc3)cc2)cc(CN(CC(=O)O)CC(=O)O)n1"
  TGI: "> 89.1 µM"
- MOLECULE: "Cn1c(=O)c2c(nc3n(CCCCl)c(=O)ccn23)n(C)c1=O"
  TGI: "> 100 µM"
- MOLECULE: "CC(C)Oc1c(O)c2c3c(oc(=O)n3C=CC2c2ccccc2)c1OC(C)C (centres undefined)"
  TGI: "> 100 µM"
- MOLECULE: "O=C1NCC(CSc2nc3cc(C4CCCc5c4[nH]c4ccccc54)ccc3o2)N1 (centres undefined)"
  TGI: "> 100 µM"
- MOLECULE: "CC[C@@H]1c2c(C#N)ncn2-c2cnc(Nc3ccc(C(=O)NC4CCN(C5CCN(CC6CC6)CC5)CC4)cc3OC)nc2N1C1CCCC1"
  TGI: "1.67 µM"
- MOLECULE: "COc1ccc(-c2cc3c(c4cc(OC)ccc24)C(=O)OC3=O)cc1"
  TGI: "> 100 µM"
- MOLECULE: "C[C@]12C[C@H](CCCCCCNCCOC(=O)NCCCc3ccc(N(CCCl)CCCl)cc3)C3=C4CCC(=O)C=C4CCC3C1CC[C@@H]2O (some centres undefined)"
  TGI: "3.21 µM"
- MOLECULE: "CN(Cc1ccccc1)C(=NC#N)N(Cc1ccccc1)Cc1ccccc1"
  TGI: "54.4 µM"
- MOLECULE: "O.O.[NH-]C1(C(=O)O)CCCC1.[NH-]C1(C(=O)O)CCCC1.[Ni+2]"
  TGI: "> 100 µM"
